- System: Escherichia coli TOP10
- assay: shrunken log2 fold change of peptide-encoding DNA abundance (4.5 h post-induction vs induction); higher = less antimicrobial activity (less host growth inhibition)
- setup.conditions: time post-induction: 4.5 h; library: site-saturation at positions 5, 18, 19, 20
quantity: shrunken log2 fold change
Number only, please.

{"residue.sequence": "RRIRHRPPRLPRPRPRPPERPRP", "shrunken log2 fold change": 0.511}
{"residue.sequence": "RRIRDRPPRLPRPRPRPGNEPRP", "shrunken log2 fold change": -0.159}
{"residue.sequence": "RRIRLRPPRLPRPRPRPLHCPRP", "shrunken log2 fold change": 0.118}
{"residue.sequence": "RRIRKRPPRLPRPRPRPRPCPRP", "shrunken log2 fold change": 0.365}
{"residue.sequence": "RRIRTRPPRLPRPRPRPMCLPRP", "shrunken log2 fold change": 0.0631}

Q: Need shrunken log2 fold change of `RRIRYRPPRLPRPRPRPECRPRP` , thanks.
Result: -0.142

Q: Fill blank: measured shrunken log2 fold change of the sequence `RRIRHRPPRLPRPRPRPDGGPRP` is ____.
Result: -0.137

Q: # input sequence: `RRIRRRPPRLPRPRPRPIHCPRP` ; wanted: its shrunken log2 fold change
Result: -0.0105

Q: What does the record list as shrunken log2 fold change for `RRIRCRPPRLPRPRPRPQFTPRP` ?
Result: -0.427

====

- System: Escherichia coli TOP10
- assay: shrunken log2 fold change of peptide-encoding DNA abundance (4.5 h post-induction vs induction); higher = less antimicrobial activity (less host growth inhibition)
- setup.conditions: time post-induction: 4.5 h; library: site-saturation at positions 5, 18, 19, 20
quantity: shrunken log2 fold change

{"residue.sequence": "RRIRQRPPRLPRPRPRPIYIPRP", "result": -0.46}
{"residue.sequence": "RRIRVRPPRLPRPRPRPMGCPRP", "result": 0.0117}
{"residue.sequence": "RRIRERPPRLPRPRPRPTWLPRP", "result": 0.289}
{"residue.sequence": "RRIRTRPPRLPRPRPRPWCMPRP", "result": -0.0742}
{"residue.sequence": "RRIRERPPRLPRPRPRPQDCPRP", "result": 0.015}
{"residue.sequence": "RRIRNRPPRLPRPRPRPLPAPRP", "result": 1.07}

Q: Record request: shrunken log2 fold change value, item `RRIRWRPPRLPRPRPRPMTYPRP`
Result: -0.289

Q: Dear colleague, I am looking for the recorded shrunken log2 fold change of the following sequence: `RRIRDRPPRLPRPRPRPYMQPRP`
Result: -0.0171

Q: Record request: shrunken log2 fold change value, item `RRIRWRPPRLPRPRPRPSLGPRP`
Result: 0.338

Q: Would you mind telling me what shrunken log2 fold change value was observed for `RRIRNRPPRLPRPRPRPKFWPRP` ?
Result: 0.177

Q: Any idea what shrunken log2 fold change was measured for `RRIRPRPPRLPRPRPRPCIGPRP` ?
Result: 0.00708

Q: Any idea what shrunken log2 fold change was measured for `RRIRHRPPRLPRPRPRPHIIPRP` ?
Result: -0.192

Q: Item under review: `RRIRARPPRLPRPRPRPCQRPRP` . Reported shrunken log2 fold change?
Result: 0.246

Q: Value lookup for shrunken log2 fold change; key = `RRIRARPPRLPRPRPRPQKKPRP`
Result: -0.0278

Q: Fill blank: measured shrunken log2 fold change of the sequence `RRIRIRPPRLPRPRPRPENKPRP` is ____.
Result: -0.663

Q: So what's the measured shrunken log2 fold change for this one? `RRIRDRPPRLPRPRPRPGDRPRP`
Result: -0.00192

Q: Would you mind telling me what shrunken log2 fold change value was observed for `RRIRVRPPRLPRPRPRPDYDPRP` ?
Result: 0.00442

====

- Tested on: Escherichia coli TOP10
- assay: shrunken log2 fold change of peptide-encoding DNA abundance (4.5 h post-induction vs induction); higher = less antimicrobial activity (less host growth inhibition)
- setup.conditions: time post-induction: 4.5 h; library: site-saturation at positions 5, 18, 19, 20
Use t when the recorded shrunken log2 fold change is no lower than -0.001; use f when it is lower.

Example cases with answers are listed next.
{"residue.sequence": "RRIRVRPPRLPRPRPRPLADPRP", "label.class": "t"}
{"residue.sequence": "RRIRGRPPRLPRPRPRPYPKPRP", "label.class": "t"}
{"residue.sequence": "RRIRARPPRLPRPRPRPVHSPRP", "label.class": "t"}
{"residue.sequence": "RRIRQRPPRLPRPRPRPDCWPRP", "label.class": "f"}
{"residue.sequence": "RRIRERPPRLPRPRPRPMNEPRP", "label.class": "f"}
{"residue.sequence": "RRIRPRPPRLPRPRPRPTLPPRP", "label.class": "t"}
{"residue.sequence": "RRIRPRPPRLPRPRPRPDLGPRP", "label.class": "t"}
{"residue.sequence": "RRIRPRPPRLPRPRPRPTSKPRP", "label.class": "t"}

Q: Does the reported shrunken log2 fold change for `RRIRMRPPRLPRPRPRPSMHPRP` fall at or above the -0.001 mark?
Result: t

Q: Check this sequence for shrunken log2 fold change at or above -0.001: `RRIRHRPPRLPRPRPRPVKPPRP`
Result: t

Q: Tell me whether shrunken log2 fold change is at least -0.001 here: `RRIRTRPPRLPRPRPRPDGIPRP`
Result: f

Q: Check this sequence for shrunken log2 fold change at or above -0.001: `RRIRPRPPRLPRPRPRPLAIPRP`
Result: t

Q: Hi team, for `RRIRRRPPRLPRPRPRPEQLPRP` , is the recorded shrunken log2 fold change at or above -0.001?
Result: t

Q: State whether the measured shrunken log2 fold change reaches -0.001, counting equality as reaching it, for `RRIRERPPRLPRPRPRPENPPRP`
Result: t

Q: Does the sequence `RRIRHRPPRLPRPRPRPSFLPRP` have recorded shrunken log2 fold change that is -0.001 or more?
Result: f

Q: Say whether `RRIRIRPPRLPRPRPRPLEGPRP` shows shrunken log2 fold change of -0.001 or more.
Result: f

Q: Would you say `RRIRKRPPRLPRPRPRPGYDPRP` shows shrunken log2 fold change at minimum -0.001?
Result: f

====

Listed sequences paired with reported shrunken log2 fold change
- Tested on: Escherichia coli TOP10
- assay: shrunken log2 fold change of peptide-encoding DNA abundance (4.5 h post-induction vs induction); higher = less antimicrobial activity (less host growth inhibition)
- setup.conditions: time post-induction: 4.5 h; library: site-saturation at positions 5, 18, 19, 20
Give your answer as a number; write no unit.

{"residue.sequence": "RRIRFRPPRLPRPRPRPMIPPRP", "numeric.readout": 0.00508}
{"residue.sequence": "RRIRPRPPRLPRPRPRPRNIPRP", "numeric.readout": -0.222}
{"residue.sequence": "RRIRCRPPRLPRPRPRPAFTPRP", "numeric.readout": 0.0636}
{"residue.sequence": "RRIRMRPPRLPRPRPRPNLGPRP", "numeric.readout": -0.0136}
{"residue.sequence": "RRIRKRPPRLPRPRPRPCVNPRP", "numeric.readout": 0.0687}
{"residue.sequence": "RRIRDRPPRLPRPRPRPMVEPRP", "numeric.readout": 0.465}
{"residue.sequence": "RRIRGRPPRLPRPRPRPHSPPRP", "numeric.readout": 0.289}
{"residue.sequence": "RRIRHRPPRLPRPRPRPFATPRP", "numeric.readout": 0.106}
{"residue.sequence": "RRIRFRPPRLPRPRPRPTFLPRP", "numeric.readout": -0.452}
{"residue.sequence": "RRIRVRPPRLPRPRPRPWLMPRP", "numeric.readout": -0.136}

Q: Query the reported shrunken log2 fold change for Escherichia coli TOP10; item: `RRIRQRPPRLPRPRPRPVLGPRP`
Result: 0.226

Q: Missing value: shrunken log2 fold change, Escherichia coli TOP10, entry `RRIRARPPRLPRPRPRPGLEPRP` . Fill in?
Result: 0.629

Q: Form: Entry = `RRIRQRPPRLPRPRPRPVNMPRP` | System = Escherichia coli TOP10 | shrunken log2 fold change = ____
Result: 0.0206

Q: Can you look up shrunken log2 fold change on Escherichia coli TOP10 for `RRIRHRPPRLPRPRPRPFHIPRP` ?
Result: -0.0345

Q: State its shrunken log2 fold change on Escherichia coli TOP10: `RRIRNRPPRLPRPRPRPGVIPRP`
Result: 0.208

====

- System: Escherichia coli TOP10
- assay: shrunken log2 fold change of peptide-encoding DNA abundance (4.5 h post-induction vs induction); higher = less antimicrobial activity (less host growth inhibition)
- setup.conditions: time post-induction: 4.5 h; library: site-saturation at positions 5, 18, 19, 20
Below: a set of entries, each annotated with reported shrunken log2 fold change.

Completed entries (count: 5):
{"residue.sequence": "RRIRQRPPRLPRPRPRPTTRPRP", "quantity": "shrunken log2 fold change", "result": 0.215}
{"residue.sequence": "RRIRFRPPRLPRPRPRPPLYPRP", "quantity": "shrunken log2 fold change", "result": -0.0579}
{"residue.sequence": "RRIRPRPPRLPRPRPRPRMLPRP", "quantity": "shrunken log2 fold change", "result": 0.00647}
{"residue.sequence": "RRIRNRPPRLPRPRPRPVVEPRP", "quantity": "shrunken log2 fold change", "result": -0.00885}
{"residue.sequence": "RRIRDRPPRLPRPRPRPLRMPRP", "quantity": "shrunken log2 fold change", "result": 0.409}

Q: Record lookup: for Escherichia coli TOP10, what shrunken log2 fold change belongs to `RRIRQRPPRLPRPRPRPVGMPRP` ?
Result: 0.18

Q: Form field - read-out: shrunken log2 fold change; system: Escherichia coli TOP10; submitted item: `RRIRNRPPRLPRPRPRPGYQPRP`
Result: -0.0454

Q: # query: shrunken log2 fold change | item `RRIRQRPPRLPRPRPRPRISPRP` | system: Escherichia coli TOP10;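 further: peptides expressed intracellularly from a pBAD plasmid library in pooled LB shake-flask culture, induced with 0.3% L-arabinose, DNA abundance read by NGS, three biological replicates, DESeq2 with apeglm shrinkage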
Result: -0.176
